organism: Rattus norvegicus; experiment: In vitro inhibitory effect on D-Galactosamine induced cytotoxicity in primary cultured rat hepatocytes at 30 ug/mL; format: functional; settings: Hepatocyte
READOUT KIND: inhibition at 30 µg/mL (%)
Answer in %, number only, no unit symbol.

C[C@@H]1O[C@@H](O[C@@H]2[C@H](O)[C@@H](O)[C@H](OC3CC[C@@]4(C)C(CC[C@]5(C)[C@@H]4CC=C4C6CC(C)(C)CC[C@]6(CO)[C@@H](O)C[C@]45C)C3(C)C)O[C@@H]2CO[C@@H]2O[C@H](CO)[C@@H](O)[C@H](O)[C@H]2O)[C@H](O)[C@H](O)[C@H]1O (some centres not stated)	-0.7

Turning now to a further record.
Request: Please look up its inhibition at 30 µg/mL: C[C@H]1O[C@@H](OC2CC[C@@]3(C)C(CC[C@]4(C)C3C=CC3=C5CC(C)(C)CC[C@]5(CO)[C@@H](O)C[C@]34C)[C@]2(C)CO)[C@H](O)[C@@H](O[C@@H]2O[C@H](CO)[C@@H](O)[C@H](O)[C@H]2O)[C@H]1O (some centres not stated)
Response: -5.1

----------
organism: Rattus norvegicus; assay: In vitro inhibitory effect on D-Galactosamine induced cytotoxicity in primary cultured rat hepatocytes at 0.3 ug/mL; assay type: functional; conditions: Hepatocyte
READOUT KIND: inhibition at 0.3 µg/mL
Provide the measurement as a number trailed by its unit.

Recorded results for 3 compounds are shown here.
C[C@H]1O[C@@H](O[C@H]2CC[C@@]3(C)C(CC[C@]4(C)C3C=C[C@]35OC[C@@]6(CCC(C)(C)CC63)[C@H](O)C[C@]54C)[C@]2(C)CO)[C@H](O)[C@@H](O[C@@H]2O[C@H](CO)[C@@H](O)[C@H](O)[C@H]2O)[C@H]1O (some centres undefined)	3.9%
CC1(C)CC[C@]2(C(=O)O)CC[C@]3(C)C(=CCC4[C@@]5(C)CC[C@H](O[C@@H]6O[C@H](CO)[C@H](O)[C@H](O[C@@H]7OC[C@@H](O)[C@@H](O)[C@@H]7O[C@@H]7O[C@H](CO)[C@@H](O)[C@H](O)[C@H]7O)[C@H]6O)C(C)(C)C5CC[C@]43C)C2C1 (some centres undefined) [BUPLEUROSIDE VII1]	1.5%
C[C@H]1O[C@@H](OC2CC[C@@]3(C)C(CC[C@]4(C)C3C=CC3=C5C[C@](C)(C(=O)O)CC[C@]5(CO)[C@H](O)C[C@]34C)[C@]2(C)CO)[C@H](O)[C@@H](O[C@@H]2O[C@H](CO)[C@@H](O)[C@H](O)[C@H]2O)[C@H]1O (some centres undefined) [BUPLEUROSIDE V]	1.4%

Turning now to a further record.
Request: Please look up its inhibition at 0.3 µg/mL: C[C@H]1O[C@@H](O[C@H]2CC[C@@]3(C)C(CC[C@]4(C)C3[C@H](O)CC3C5=CC(C)(C)CC[C@]5(CO)[C@@H](O)C[C@]34C)[C@]2(C)CO)[C@H](O)[C@@H](O[C@@H]2O[C@H](CO)[C@@H](O)[C@H](O)[C@H]2O)[C@H]1O (some centres undefined)
Response: 15.8%

----------
species: Rattus norvegicus; experiment: In vitro inhibitory effect on D-Galactosamine induced cytotoxicity in primary cultured rat hepatocytes at 1 ug/mL; format: functional; settings: Hepatocyte
READOUT KIND: inhibition at 1 µg/mL (%)
Answer in %, number only, no unit symbol.

Request: Please look up its inhibition at 1 µg/mL: CO[C@@H]1C=C2C3CC(C)(C)CC[C@]3(CO)[C@H](O)C[C@@]2(C)[C@]2(C)CCC3[C@](C)(CCC(O[C@@H]4O[C@H](C)[C@H](O)[C@H](O[C@@H]5O[C@H](CO)[C@@H](O)[C@H](O)[C@H]5O)[C@H]4O)[C@@]3(C)CO)C12 (stereo partly drawn)
Response: -4
